Protocol details: Inhibition of 20S proteosome beta 1 in mouse A20 cells by ELISA
pIC50: −log10 of the molar value.
Property: pIC50

Supply pIC50 value. Item: COc1ccc([C@@H](O)[C@H](NC(=O)[C@H](C)NC(=O)CN2CCOCC2)C(=O)N[C@@H](CC2=CCCC2)C(=O)[C@@]2(C)CO2)cc1 [Kzr-616] < 4.60
